Attribute: T/C % of MST
Tested on: murine transplantable P388 leukemia
Assay: in vivo antitumor activity against P388 leukemia in mice (single ip dose, median survival time)
Set-up: species or system murine (female CDF1 mice)
Conditions: 120 mg/kg, Q1D × 1, ip, day 1
Hi! Could you send only the number? It should be in %, unit omitted.

Example compounds with recorded T/C % of MST:
>  <compound>
COc1cc([C@@H]2c3cc4c(cc3[C@@H](O[C@@H]3O[C@@H]5COC(OC)(OC)O[C@H]5[C@H](O)[C@H]3O)[C@H]3COC(=O)[C@H]23)OCO4)cc(OC)c1O

>  <result number>
210

$$$$
>  <compound>
CCO[C@@H]1OC[C@H]2O[C@@H](O[C@@H]3c4cc5c(cc4[C@@H](c4cc(OC)c(O)c(OC)c4)[C@H]4C(=O)OC[C@@H]43)OCO5)[C@H](O)[C@@H](O)[C@@H]2O1

>  <result number>
219

$$$$
>  <compound>
CCOC1(OCC)OC[C@H]2O[C@@H](O[C@@H]3c4cc5c(cc4[C@@H](c4cc(OC)c(O)c(OC)c4)[C@H]4C(=O)OC[C@@H]43)OCO5)[C@H](O)[C@@H](O)[C@@H]2O1

>  <result number>
182

$$$$

Looking up COc1cc([C@@H]2c3cc4c(cc3[C@@H](O[C@@H]3O[C@@H]5CO[C@H](OC)O[C@H]5[C@H](O)[C@H]3O)[C@H]3COC(=O)[C@H]23)OCO4)cc(OC)c1O , I found its T/C % of MST recorded as 248

Looking up COc1cc([C@@H]2c3cc4c(cc3[C@@H](O[C@@H]3O[C@@H]5CO[C@@H](C)O[C@H]5[C@H](O)[C@H]3O)[C@H]3COC(=O)[C@H]23)OCO4)cc(OC)c1O [Etoposide, reference compound] , I found its T/C % of MST recorded as 288

Looking up CCO[C@H]1OC[C@H]2O[C@@H](O[C@@H]3c4cc5c(cc4[C@@H](c4cc(OC)c(O)c(OC)c4)[C@H]4C(=O)OC[C@@H]43)OCO5)[C@H](O)[C@@H](O)[C@@H]2O1 , I found its T/C % of MST recorded as 214

====

Tested on: murine transplantable P388 leukemia
Assay: in vivo antitumor activity against P388 leukemia in mice (single ip dose, median survival time)
Parameters: species or system murine (female CDF1 mice)
Conditions: 10 mg/kg, Q1D × 1, ip, day 1
experimental readout: T/C % of MST (%)
Hi! Could you send only the number? It should be in %, unit omitted.

Example compounds with recorded T/C % of MST:
>  <compound>
CCO[C@@H]1OC[C@H]2O[C@@H](O[C@@H]3c4cc5c(cc4[C@@H](c4cc(OC)c(O)c(OC)c4)[C@H]4C(=O)OC[C@@H]43)OCO5)[C@H](O)[C@@H](O)[C@@H]2O1 [Compound 2b]

>  <T/C % of MST / %>
143

$$$$
>  <compound>
COc1cc([C@@H]2c3cc4c(cc3[C@@H](O[C@@H]3O[C@@H]5COC(OC)(OC)O[C@H]5[C@H](O)[C@H]3O)[C@H]3COC(=O)[C@H]23)OCO4)cc(OC)c1O [Compound 3]

>  <T/C % of MST / %>
170

$$$$
>  <compound>
CCO[C@H]1OC[C@H]2O[C@@H](O[C@@H]3c4cc5c(cc4[C@@H](c4cc(OC)c(O)c(OC)c4)[C@H]4C(=O)OC[C@@H]43)OCO5)[C@H](O)[C@@H](O)[C@@H]2O1 [Compound 2a]

>  <T/C % of MST / %>
148

$$$$

Here is another compound to look at.
T/C % of MST value, target or system murine transplantable P388 leukemia, for COc1cc([C@@H]2c3cc4c(cc3[C@@H](O[C@@H]3O[C@@H]5CO[C@H](OC)O[C@H]5[C@H](O)[C@H]3O)[C@H]3COC(=O)[C@H]23)OCO4)cc(OC)c1O [Compound 1a] : 149

====

Test system: murine transplantable P388 leukemia
Test: in vivo antitumor activity against P388 leukemia in mice (single ip dose, median survival time)
Design: species or system murine (female CDF1 mice)
Conditions: 3 mg/kg, Q1D × 1, ip, day 1
Attribute: T/C % of MST
Hi! Could you send only the number? It should be in %, unit omitted.

>  <compound>
COc1cc([C@@H]2c3cc4c(cc3[C@@H](O[C@@H]3O[C@@H]5CO[C@@H](OC)O[C@H]5[C@H](O)[C@H]3O)[C@H]3COC(=O)[C@H]23)OCO4)cc(OC)c1O [Compound 1b]

>  <result number>
145

$$$$
>  <compound>
CCO[C@@H]1OC[C@H]2O[C@@H](O[C@@H]3c4cc5c(cc4[C@@H](c4cc(OC)c(O)c(OC)c4)[C@H]4C(=O)OC[C@@H]43)OCO5)[C@H](O)[C@@H](O)[C@@H]2O1 [Compound 2b]

>  <result number>
138

$$$$
>  <compound>
CCOC1(OCC)OC[C@H]2O[C@@H](O[C@@H]3c4cc5c(cc4[C@@H](c4cc(OC)c(O)c(OC)c4)[C@H]4C(=O)OC[C@@H]43)OCO5)[C@H](O)[C@@H](O)[C@@H]2O1 [Compound 4]

>  <result number>
132

$$$$
>  <compound>
COc1cc([C@@H]2c3cc4c(cc3[C@@H](O[C@@H]3O[C@@H]5COC(OC)(OC)O[C@H]5[C@H](O)[C@H]3O)[C@H]3COC(=O)[C@H]23)OCO4)cc(OC)c1O [Compound 3]

>  <result number>
140

$$$$
>  <compound>
CCO[C@H]1OC[C@H]2O[C@@H](O[C@@H]3c4cc5c(cc4[C@@H](c4cc(OC)c(O)c(OC)c4)[C@H]4C(=O)OC[C@@H]43)OCO5)[C@H](O)[C@@H](O)[C@@H]2O1 [Compound 2a]

>  <result number>
133

$$$$
>  <compound>
COc1cc([C@@H]2c3cc4c(cc3[C@@H](O[C@@H]3O[C@@H]5CO[C@H](OC)O[C@H]5[C@H](O)[C@H]3O)[C@H]3COC(=O)[C@H]23)OCO4)cc(OC)c1O [Compound 1a]

>  <result number>
142

$$$$

Looking up COc1cc([C@@H]2c3cc4c(cc3[C@@H](O[C@@H]3O[C@@H]5CO[C@@H](C)O[C@H]5[C@H](O)[C@H]3O)[C@H]3COC(=O)[C@H]23)OCO4)cc(OC)c1O [Etoposide, reference compound] , I found its T/C % of MST recorded as 143

====

Tested on: murine transplantable P388 leukemia
Test: in vivo antitumor activity against P388 leukemia in mice (single ip dose, median survival time)
Parameters: species or system murine (female CDF1 mice)
Details: 10 mg/kg, Q1D × 1, ip, day 1
Attribute: T/C % of MST

Example compounds with recorded T/C % of MST:
>  <compound>
COc1cc([C@@H]2c3cc4c(cc3[C@@H](O[C@@H]3O[C@@H]5CO[C@@H](OC)O[C@H]5[C@H](O)[C@H]3O)[C@H]3COC(=O)[C@H]23)OCO4)cc(OC)c1O

>  <T/C % of MST>
165%

$$$$
>  <compound>
CCOC1(OCC)OC[C@H]2O[C@@H](O[C@@H]3c4cc5c(cc4[C@@H](c4cc(OC)c(O)c(OC)c4)[C@H]4C(=O)OC[C@@H]43)OCO5)[C@H](O)[C@@H](O)[C@@H]2O1

>  <T/C % of MST>
136%

$$$$

Looking up COc1cc([C@@H]2c3cc4c(cc3[C@@H](O[C@@H]3O[C@@H]5CO[C@@H](C)O[C@H]5[C@H](O)[C@H]3O)[C@H]3COC(=O)[C@H]23)OCO4)cc(OC)c1O [Etoposide, reference compound] , I found its T/C % of MST recorded as 163%
